Test system: Calu-6
Experiment: Cell proliferation assay (MTT/MTS)
Conditions: Homo sapiens, Calu-6, read-out: IC50 ± SEM
Hi there, I'd appreciate the recorded IC50 for every entry that follows.
Report only the number, with the unit nM understood.

-- ask What does the record list as IC50 for CC(=O)Nc1cccc(-n2c(=O)n(C3CC3)c(=O)c3c(Nc4ccc(I)cc4F)n(C)c(=O)c(C)c32)c1 ?
-- reply 10.6

-- ask What does the record list as IC50 for Cn1cnc2c(F)c(Nc3ccc(Br)cc3Cl)c(C(=O)NOCCO)cc21 ?
-- reply 2310

* * *

Tested on: HT-29
Test: Cell proliferation assay (MTT/MTS)
Settings: Homo sapiens, HT-29, read-out: IC50 ± SEM
property: IC50 (nM)
Report only the number, with the unit nM understood.

-- ask Give HT-29 IC50 for CC(=O)Nc1cccc(-n2c(=O)n(C3CC3)c(=O)c3c(Nc4ccc(I)cc4F)n(C)c(=O)c(C)c32)c1
-- reply 1.45

-- ask Give HT-29 IC50 for Cn1cnc2c(F)c(Nc3ccc(Br)cc3Cl)c(C(=O)NOCCO)cc21
-- reply 175
